# System: human PCSK9 protein
# EXPERIMENT: Protein ELISA: titers of vaccine-induced PCSK9-specific antibodies in plasma of immunized mice
# Type: in vivo, BALB/c mice
# ASSAY SETUP: mean titer, n=5 BALB/c mice/group; s.c. 4 x 15 μg net peptide coupled to KLH, Alhydrogel; plasma 2 weeks after final injection; titer = serum dilution at 50% ODmax
# Experimental: The peptides were conjugated via the heterobifunctional linker GMBS (4-Maleimidobutyric acid N-hydroxysuccinimide ester) to KLH (Keyhole Limpet Hemocyanin). 5 BALB/c mice were subcutaneously immunized. […] To determine the immunogenicity of the vaccines, and thus to identify the amount of PCSK9 specific antibodies in the plasma of immunized animals, ELISA immunoassay was performed. […] As negative control sera from the control group injected with an irrelevant peptide were analyzed. […]
Cut-off 20000 on titers against huPCSK9 (ODmax/2): below means fulfilled, at or above means not fulfilled.

>>> assigned_class("25 (KEEDGTRFHRQASK) [compound 25]")
"fulfilled"
>>> assigned_class("14 (PEEDGTRFHKQASK) [compound 14]")
"fulfilled"
>>> assigned_class("15 (PEEDGTRFHMQASK) [compound 15]")
"fulfilled"
>>> assigned_class("36 (PEEDGTRFHRTASK) [compound 36]")
"not fulfilled"
>>> assigned_class("6 (PEEDGTRFHRAASK) [compound 6]")
"not fulfilled"
>>> assigned_class("29 (PEEDGTRFSRQASK) [compound 29]")
"not fulfilled"
>>> assigned_class("2 (AEEDGTRFHRQASK) [compound 2]")
"not fulfilled"
>>> assigned_class("5 (PEEDGTRFHAQASK) [compound 5]")
"not fulfilled"
>>> assigned_class("39 (PEEDGTRFHRQAST) [compound 39]")
"fulfilled"
>>> assigned_class("40 (PEEDGTRFHRQASV) [compound 40]")
"not fulfilled"
>>> assigned_class("3 (PAEDGTRFHRQASK) [compound 3]")
"fulfilled"
>>> assigned_class("1 (PEEDGTRFHRQASK) [compound 1]")
"fulfilled"
>>> assigned_class("44 (PEEDGSRFHRQATK) [compound 44]")
"not fulfilled"
